- experiment-notes: qHTS assay to identify small molecule antagonists of the sonic hedgehog signaling (Shh) pathway (AID 1259369); note: nearly all actives have a fitted effect of over 45% in size
- condition-parameters: NIH/3T3 Gli1-Luc reporter, Shh antagonist, luminescence 24 h; series mostly up to 92.4 µM
Results filed as inconclusive are left out. Activity calls are given as the source filed them. Calls come from the whole dose curve.
Would you mind answering with one of these outcomes? 1 for active, -1 for inactive

Solved entries:
{"compound": "NC(=O)Nc1ccc(Cl)cc1", "cat": -1}
{"compound": "CCCCC1C(=O)N(c2ccccc2)N(c2ccc(O)cc2)C1=O (centres undefined)", "cat": 1}
{"compound": "CCC(C)=O", "cat": -1}
{"compound": "COc1ccc([C@@H]2Sc3ccccc3NC(=O)[C@@H]2O)cc1", "cat": -1}
{"compound": "COC(=O)c1cc(S(N)(=O)=O)ccc1OC", "cat": -1}
{"compound": "Fc1ccccc1[C@@H](F)COC1CCC(Nc2ncnc3[nH]ncc23)CC1 (some centres undefined)", "cat": 1}
{"compound": "Cn1c(=O)c2c(ncn2CC(=O)O)n(C)c1=O", "cat": -1}
{"compound": "Cc1nc2ccccc2s1", "cat": -1}

Test call, this compound: `CCCCCC=CCC=CCCCCCCCC(=O)OCC` -1

# outcome recorded in this test, key = `CCOC(=O)CC(=O)C(=O)OCC` -1

Recorded call for `Cc1cc(OI)c(C(C)C)cc1-c1cc(C(C)C)c(OI)cc1C` ? -1

I'd appreciate the recorded outcome for `CCCCCCCCCCCCCCC[C@H](O)[C@@H](N)CO` from this test. -1

Hi team, can someone confirm the assay call for `Cc1cnc(C)c(C)n1` ? -1

Hey, what did the test say about `c1cnc2c(n1)CCCC2` ? -1

The reported numbers originate from PubChem BioAssay (Tox21).
